- assayComment: Resistance to Poly (ADP-Ribose) Polymerase inhibitor: Gene Identification via Genome-wide siRNA Screen
- statedConditions: mouse BRCA2 R2336H ES cells, olaparib, CellTiter-Glo viability; hits give high values
Among all 52,000 sequences or so, about 210 (0.4%) were called active. Only a selection was taken, and actives are over-represented in it overall.
Simple rule here: z-score less than -0.5 is Criterion met, otherwise Criterion not met.

sequenceChain	categoryLabel
GGUGAUAACUCCCUAGUAGTT against Rai12	Criterion met

Check if z-score falls below -0.5 for GGAGGAGGAGGACUUUGAUTT against 5830417I10Rik . Criterion met

Record GGAUUCCCUAUCCCAUACCTT against Araf1 : is its z-score strictly below -0.5? Criterion not met

For this sequence, is z-score lower than -0.5? GGUAAUUUGUUUGUGGUGATT against Mtnr1b Criterion met

API: query returns whether the sequence falls strictly under -0.5 in z-score. Query: GCACUAGUUCUCAAUUUAATT against Antxr1 Criterion not met

Strictly below -0.5: is that where z-score of GGUACUAAACACCAACUCCTT against B230315M08Rik sits? Criterion not met

====

- assayComment: Resistance to Poly (ADP-Ribose) Polymerase inhibitor: Gene Identification via Genome-wide siRNA Screen
- statedConditions: mouse BRCA2 R2336H ES cells, olaparib, CellTiter-Glo viability
About 210 (0.4%) of roughly 52,000 sequences were called active.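 Rule for the calls: active = gene whose silencing raises cell survival under the drug, median off-target-corrected z-score across its silencing RNAs 2 or more; inactive = the rest.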 The full list was thinned out, with actives kept by preference.
Write down one outcome, taken from active, inactive

Field: example entries. Status: answers known.
sequenceChain	categoryLabel
CCUGGUAACAGUCAUAAAUTT against Lhfpl2	inactive
GGAAAUCUUACAGACUGAGTT against Grid2	active
GAUCACAGUCACGAUAUAATT against Prss19	inactive

Kindly provide the recorded test outcome for the following sequence: GGGACCCUUCUACAAAAACTT against Pias3 active

In this assay, the call recorded for CCAUUGCCAACAACUAGAUTT against Ela3b was what? active

// param item: GCUACUCAUGCUAGAUGACTT against Gba ; yields the recorded call inactive

Returns: the outcome recorded for CCAACAAUCCGUAUCGACCTT against 4930425N13Rik in this assay. inactive

====

- assayComment: Resistance to Poly (ADP-Ribose) Polymerase inhibitor: Gene Identification via Genome-wide siRNA Screen
- statedConditions: mouse BRCA2 R2336H ES cells, olaparib, CellTiter-Glo viability; hits give high values
The campaign covered roughly 52,000 sequences. About 210 (0.4%) were called active. The sample as a whole holds a higher share of actives than the screen did.
Provide the reported z-score of each item.
Give bare numbers.

Some solved cases for reference:
sequenceChain	endpoint	endpointResult
GGCAUAACUGAUCAUACGCTT against Foxp3	z-score	1.06
GGAGAUAAAAGUUUCAUCUTT against Jmjd2b	z-score	0.46
GGUGACAAUAAAAUGGUGATT against Fabp1	z-score	0.496
GGAAGACCUGAUUGGAAAATT against Trpm1	z-score	0.553
GGCACCUAAAUUCUUGAAUTT against Hspb6	z-score	-0.361

Here are 4 sequences. What values of z-score were reported for them?
1. GCAAGUAUACACCUCUCAATT against Slc6a12
2. GGCUGCCUCGAAAUUACAATT against Lamb3
3. GGAGUCAAGUCCACAUACATT against Usp47
4. CGAAGCUAAAGGAUAUAGATT against 1110025H10Rik

[2.24, -1.79, -0.927, 0.236]

List z-score for every entry below, keeping the order given.
1. GUCAUCAAACUAGGUGCUGTT against Olfr584
2. GCUAAAAGGUAAGUACUUCTT against AB041803
3. GGCCUUUCUGGAGAAGAUGTT against Stfa3
4. GACAAAUAGUGCAGGAGGATT against 2310069N01Rik
5. CACUCAGCUCAAUGACCUGTT against Ifna14

1. 5.09
2. 0.00857
3. -0.717
4. 0.444
5. -0.514

====

Would you kindly list z-score for each of these sequences?
- assayComment: Resistance to Poly (ADP-Ribose) Polymerase inhibitor: Gene Identification via Genome-wide siRNA Screen
- statedConditions: mouse BRCA2 R2336H ES cells, olaparib, CellTiter-Glo viability; hits give high values
In all, about 52,000 sequences went through this assay and about 210 (0.4%) were called active. Only a selection was taken, and actives are over-represented in it overall.
Numbers only.

# count of solved cases: 5
sequenceChain	endpoint	endpointResult
GGAAUUUGACAAACUCAGCTT against Rcn3	z-score	0.337
GGCUCUCUUAGUUGUAUCATT against Mrpl35	z-score	-1.03
GCUUAAAGAUCGAUCCCGCTT against Slc38a4	z-score	0.666
GGUCUCCCUUCAGUAUGAGTT against Ela3b	z-score	2.47
GGAAUUUUUGGACAAAGUATT against Grid2	z-score	-3.07

# batch: return z-score for each of the 6 sequences below
1. CCAACUUUCUCUUAGGAAATT against Gm580
2. GGGAAAUGGCUCAUACUGGTT against 2210010C04Rik
3. GGUCAUUUCAAGUGCUAAGTT against D7Ertd680e
4. GGAUAGUAACGGAAACUUGTT against Usp25
5. GGCUUAUUUUUCUUCAGUUTT against Ext1
6. GGCUACGAAACCAGAAGAUTT against Shd

1: 0.9; 2: -0.608; 3: 1.01; 4: 2.49; 5: -0.0515; 6: 0.117

GGUCGGAAGAAUCUAAAGGTT against Dmp1 yielded z-score of 0.0661

====

- assayComment: Resistance to Poly (ADP-Ribose) Polymerase inhibitor: Gene Identification via Genome-wide siRNA Screen
- statedConditions: mouse BRCA2 R2336H ES cells, olaparib, CellTiter-Glo viability
Screen size: about 52,000 sequences; about 210 (0.4%) were called active.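 Rule for the calls: active = gene whose silencing raises cell survival under the drug, median off-target-corrected z-score across its silencing RNAs 2 or more; inactive = the rest.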 The sample as a whole holds a higher share of actives than the screen did.
Respond using exactly one of the listed classes: active, inactive

Worked examples, 5 sequences total:
sequenceChain	categoryLabel
GGCAAAGUGAUAUUUUCAATT against Slc6a12	active
CCUUGUACACGGAUUGAAUTT against Itga6	active
GGAGUUCAUUCUGAAUCAGTT against Etohi2	inactive
GGAGAAGGAGGUGAUAAUGTT against Sart1	inactive
GCGGCAGAUCUUCGAUUUCTT against 2610200G18Rik	inactive

Test call for this sequence, please: GCAACAUGGCCCUUACCAUTT against Plcb2 inactive

Entry GGAUGUCCCACUGCUUUACTT against 5730466C23Rik : call = ? inactive

State the result this test recorded for GGCCUCCCUACUUGAAGACTT against Crip3 . active

For GGAAACAACGGAUCCAAAATT against Plcb3 , which call appears in the assay record? active

Which outcome was assigned to GGGCUAUAACCCUGAAGAUTT against Rarg in this test? active

Hi, sorry to bother you, what did the test record for GGAUCACUACCAUGAAAACTT against Bace1 ? inactive

In this assay, the call recorded for GACUCCCACUUACACUCUCTT against Olfr1312 was what? inactive

====

- assayComment: Resistance to Poly (ADP-Ribose) Polymerase inhibitor: Gene Identification via Genome-wide siRNA Screen
- statedConditions: mouse BRCA2 R2336H ES cells, olaparib, CellTiter-Glo viability; hits give high values
Hit rate of the full screen: of about 52,000 sequences, about 210 (0.4%) were called active. Only a selection was taken, and actives are over-represented in it overall.
endpoint: z-score
Answers are plain numbers.

Past entries and their recorded results:
sequenceChain	z-score
GAUUCCACGCCAAUUCAUCTT against Ccl3	-1.53
CCACAGCCAAAUGCACAAGTT against Gm1631	-0.237
GGGAGAAGAAAUGGUUUAATT against B230315M08Rik	1.54
GCUUUACCUGCUCAGAAGCTT against Olfr520	0.553
CCAUAAACGACGAAAUGAUTT against Usp11	2.97
GGACUUAGACAUCCACCUCTT against 1700034O15Rik	-0.799
GGCCAAAGAGGAGGAAAACTT against D5Bwg0834e	-0.569
GGACUGGUUCUUCAGUACCTT against Cradd	2.24
CCACCAGACUCAUAUUAACTT against LOC433501	-0.496
GGAGUUUGCCACAAUUGUUTT against 2810408E11Rik	-1.26

// each sequence listed below needs its z-score
1. CCUGAAUUACCUCAUAUAUTT against Stat5b
2. GGAUGUGGACUCAAAGAAATT against 1110001E17Rik
3. CCGACGUGCAUGGAGAAAATT against 1700030J22Rik

[0.922, 1.9, -1.71]

For each of the items listed, what is its z-score?
1. GGACCAGAAAAUUCACUUUTT against Gdap2
2. GGGAAAAUGCUUUGUUGGATT against Rqcd1
3. CCAGAACUUCCCAUUAAAATT against Alg8
4. GGAAAGUUGUAUUUGAUGUTT against Nudt7
5. GGUGGCAUGUCAUUGCUUCTT against Igf2
6. GCUGAAAAUACAAUCUCUGTT against Capn3
7. GGGAAUUGCUCACCUCCAUTT against Klre1

-1.39
1.97
-0.0137
0.299
1.16
2.18
-0.871
